The measured values listed here are drawn from PubChem BioAssay.

# assay-procedure: HUVEC growth inhibition – cell-based, human, primary screen (AID 575);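 further: 100% = median of untreated cell wells with 0.1% DMSO on each plate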
# condition-label: HUVEC proliferation, CellTiter-Glo luminescence, 72 h; at 10 µM; stronger effect = lower value
Below, each entry is listed with its recorded viability.
Give just the numeric value; % need not be written.

Before answering, review these 8 worked examples.
compound: CCN(CC)CCNC(=O)c1cc(Cl)c(N)cc1OC
viability, %: 85.9

compound: CS(=O)(=O)N(CC(=O)Nc1ccc2c(c1)OCO2)Cc1ccc(Cl)cc1
viability, %: 88.5

compound: O=C(COC(=O)c1cccc(S(=O)(=O)N2CCc3ccccc32)c1)NC1CCS(=O)(=O)C1 (stereo not drawn)
viability, %: 114

compound: CC1CCN(C(=O)c2ccc(C(=O)N3CCC(C)CC3)cc2)CC1
viability, %: 87.3

compound: CN(C)c1ccc(NC(=O)c2ccncc2)c2ccccc12
viability, %: 108

compound: COC(=O)c1ccc(CN(c2ccccc2OC)S(=O)(=O)c2cccs2)o1
viability, %: 98.8

compound: CS(=O)(=O)N1CCc2cc(C(=O)N3CCCCC3)ccc21
viability, %: 99.8

compound: CS(=O)(=O)NCc1nnc(SCC(=O)NC2CCCCC2)n1-c1ccc(F)cc1
viability, %: 102

Exercise: Identify viability associated with the compound Cn1c(=O)cc(OCC(=O)NCCCN2CCN(Cc3ccccc3)CC2)c2ccccc21
Key: 81.3

###

# assay-procedure: reversal of MRP1-mediated doxorubicin resistance, pilot screen, H69AR cells, doxorubicin co-treatment (AID 601)
# condition-label: H69AR cells + 2 uM doxorubicin, CellTiter-Glo, 72 h; measured here: viability with 2 uM doxorubicin; at 10 µM; stronger effect = lower value
Below, each entry is listed with its recorded viability.
Give just the numeric value; % need not be written.

Before answering, review these 5 worked examples.
compound: COc1ccc(N2CCN(C(=O)CSc3ncnc4c3cnn4-c3ccccc3C)CC2)cc1
unit-annotation: %
viability: 75.8

compound: CSc1nnc(-c2cnccn2)n1C
unit-annotation: %
viability: 89.7

compound: Nc1cccc(C(=O)O)c1
unit-annotation: %
viability: 87.7

compound: COc1ccc(C(O)Cn2c(=N)n(CCCN(C)C)c3ccccc32)cc1 (stereo not given)
unit-annotation: %
viability: 91.1

compound: CCOC(=O)N1CCN(Cc2ccccc2F)CC1
unit-annotation: %
viability: 87.2

Exercise: Identify viability associated with the compound Cc1cc2c(c(=O)o1)C(C13C=CC(CC1)C3)C(C#N)=C(N)O2 (stereo not given)
Key: 86.6

Exercise: Identify viability associated with the compound c1ccc2oc(SCc3cn4ccccc4n3)nc2c1
Key: 85.6

Exercise: Identify viability associated with the compound COc1cc(Cn2c(-c3nonc3N)nc3ccccc32)ccc1C
Key: 47.1

Exercise: Identify viability associated with the compound COc1ccc(CCN2C(=O)C3C4C=CC(C4)C3C2=O)cc1OC (stereo not given)
Key: 94.8

Exercise: Identify viability associated with the compound Fc1ccc(C(c2ccc(F)cc2)N2CCN(C/C=C/c3ccccc3)CC2)cc1
Key: 82.3

Exercise: Identify viability associated with the compound CCOC(=O)N1CCC(N2C(=O)c3ccccc3C2Nc2cccnc2)CC1 (stereo not given)
Key: 85.6

Exercise: Identify viability associated with the compound CSC(=O)CC(=O)NC(=O)c1ccccc1
Key: 104

Exercise: Identify viability associated with the compound Cc1c(CNCc2cccs2)c(C(=O)O)c(C)n1Cc1ccccc1
Key: 94.2

Exercise: Identify viability associated with the compound Cc1cc(Oc2ccc(Cl)cc2)nc(-c2ccccc2O)n1
Key: 90.7

Exercise: Identify viability associated with the compound COC(=O)c1ccc2c(=O)n(CC3CCCO3)c(=S)[nH]c2c1 (stereo not given)
Key: 83.9
